system: A498 renal; assay: NCI-60 one-dose screen, 48 h (100 = growth as untreated, 0 = no growth, -100 = all killed); details: 10 µM unless noted
This is part of a sample that, as a whole, favours compounds with a hit. Of some 83,000 tested, about 20% had one in any assay.
Measured growth, listed per entry.

COMPOUND	growth / %
COc1cccc(-c2ccc3c(c2)C2CCN(Cc4ccccc4)C3C2)c1 (centres undefined)	65
COc1cccc(C2C3=C(COC3=O)N(CCO)c3cc4c(cc32)CCC4)c1 (centres undefined)	-19.8
OB(O)c1ccccc1	106
Cc1nc(NC(=O)COc2cccc(/C=C3\COc4ccccc4C3=O)c2)sc1C	87.2
O=C(CC(O)c1ccccc1)Nc1ccccn1 (centres undefined)	102
COC(=O)CCC(=O)c1ccccc1	112
N#CC1=C(N)Oc2cc(N)ccc2C1c1ccc(F)cc1 (centres undefined)	64.8
O=C1N/C(=C\c2ccccc2)c2ncccc21	123
OC[C@@H](O)[C@@H](O)CO	101
C(=C\c1ccccc1)/CN1CCN(C(c2ccccc2)c2ccccc2)CC1	69.5
Cc1nc2cc(Nc3nc(N4CCCCC4)nc(N4CCOCC4)n3)ccc2n1Cc1ccccc1	38.8
O=S(=O)(Nc1ncccn1)c1ccc(Nc2ccc3nnc(-c4ccncc4)n3n2)cc1	87.5
Cc1cc(C)c(S(=O)O)c(C)c1	92.7
NC(=S)N/N=C1\c2ccccc2-c2c(F)c(F)c(F)c(F)c21	105
CN1CCN(CCCn2c3c(sc4ncccc43)c(=O)n3nnc(-c4ccccc4)c23)CC1	150
Cn1cc(C(=O)NCCC(=N)N)cc1NC(=O)CN=C(N)N	108
Cc1nc(-c2ccccc2)cc2c(O)c(C(=O)N/N=C/Cc3ccccc3)[nH]c(=O)c12	94.5
COc1ncnc2c1ncn2C/C(Br)=C(\Br)CCl	94.8
Clc1ccc2c(c1)C[C@H]1C[C@@H](c3cccs3)N2O1	77.1
COc1ccc2c(c1)c(=O)oc1c(C)c(OCC(C)=O)ccc12	90
Cc1cc(=O)[nH]n1-c1cc(Cl)ccc1N	120
Cc1ccc2nc(NC(=O)CSC(=S)N3CCN(Cc4ccccc4)CC3)sc2c1	-3.21
COc1cc(C2=NN(c3ccc(S(N)(=O)=O)cc3)C(c3ccc(Cl)cc3)C2)cc(OC)c1OC (centres undefined)	35.4
O=C1NC(=S)S/C1=C\c1cccc([N+](=O)[O-])c1	96.1

Cited source: PubChem BioAssay (NCI)
